Assayed system: T1, hErbB3.hFc (soluble dimeric human ErbB3 extracellular domain fused to human Fc) (human)
T1 construct: called dimeric
T1 sequence (chain, as listed by the source limits assumed): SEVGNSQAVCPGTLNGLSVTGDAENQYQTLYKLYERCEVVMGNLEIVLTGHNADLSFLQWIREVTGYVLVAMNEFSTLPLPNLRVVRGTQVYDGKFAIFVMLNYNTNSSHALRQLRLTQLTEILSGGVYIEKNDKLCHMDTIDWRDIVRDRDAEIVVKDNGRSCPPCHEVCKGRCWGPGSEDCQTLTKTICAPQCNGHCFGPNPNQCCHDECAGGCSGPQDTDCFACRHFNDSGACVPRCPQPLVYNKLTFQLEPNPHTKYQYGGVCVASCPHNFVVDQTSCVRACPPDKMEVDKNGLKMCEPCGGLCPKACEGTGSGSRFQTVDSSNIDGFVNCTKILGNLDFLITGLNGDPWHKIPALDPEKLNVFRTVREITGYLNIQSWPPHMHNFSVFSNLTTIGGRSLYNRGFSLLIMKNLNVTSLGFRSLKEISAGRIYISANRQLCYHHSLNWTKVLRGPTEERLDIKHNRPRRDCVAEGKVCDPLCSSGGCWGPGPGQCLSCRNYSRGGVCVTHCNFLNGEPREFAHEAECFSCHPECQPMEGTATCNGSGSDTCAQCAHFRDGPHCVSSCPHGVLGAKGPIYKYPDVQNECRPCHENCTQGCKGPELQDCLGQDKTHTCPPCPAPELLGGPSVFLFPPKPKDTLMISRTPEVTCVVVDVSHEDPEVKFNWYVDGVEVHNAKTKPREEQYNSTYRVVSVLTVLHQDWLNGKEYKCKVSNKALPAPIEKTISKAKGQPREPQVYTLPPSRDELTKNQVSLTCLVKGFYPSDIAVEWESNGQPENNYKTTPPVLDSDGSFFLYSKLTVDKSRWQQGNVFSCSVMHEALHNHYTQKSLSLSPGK
Assay name: SPR (Biacore), 25 C, mAb capture format
Items are presented alongside their recorded Kd.
All answers are understood in nM, so give the number only.

// below: answered binders
H1M1828N (antibody, V domains shown, Hybridoma chimeric antibody: human variable domains, mouse constant domains (H1M prefix, mouse Fc)) VH: EVQLVESGGGLVQPGRSLRLSCAASGFTFDDYAMYWVRQAPGKGLEWVSGISWNSGSIGYADSVKGRFTISRDNAKNSLYLQMDSLRAEDTALYYCARDMMEVDLYGMDVWGQGTTVTVSS VL: DIQMTQSPSSVSASVGDRVTITCRASQDISSWLAWYQQKPGTAPKFLIYETSSLQSGVPSRFSGSGSGTDFILTISSLQPEDFATYYCQQTDSFPHTFGQGTKLEIR    0.0279
H2M1930N (antibody, V domains shown, Hybridoma chimeric antibody: human variable domains, mouse IgG2 Fc (H2M prefix)) VH: EVQLVESGGGLVKPGGSLRLSCVASGFTFSSYNMNWVRQAPGKGLEWVSFISGSSNYIHYADSVKGRFTISRDNAKNALYLQMNSLRAEDTAVYYCARDDGDYDWFDPWGQGTLVTVSS VL: EIVLTQSPGTLSLSPGERATLSCRASQSVSSSYLAWYQQKPGQAPRLLIYGTSSRATGIPDRFSGSGSGTDFTLTISRLEPEDFAVYYCQQYDNSYTFGQGTKLEIK    0.0205
H2M1934N (antibody, V domains shown, Hybridoma chimeric antibody: human variable domains, mouse IgG2 Fc (H2M prefix)) VH: EVQLVQSGGGLVKPGGSLRLSCAASGFTFSNFNMNWVRQAPGKGLEWVSFISSLSTYTYYADSVKGRFTISRDNAKNSLYLQMNSLRAEDTAVYYCARDDGDHDWFDPWGQGTLVTVSS VL: EIVLTQSPDTLSLSPGERATLSCRASQSVSSNYLAWYQQKPGQAPRLLIYSASNRATGIPDRFSGSGSGTDFTLTISRLEPEDFAVYYCQQYDSSYTFGQGTKLEIK    0.0222
H2M1936N (antibody, V domains shown, Hybridoma chimeric antibody: human variable domains, mouse IgG2 Fc (H2M prefix)) VH: EMQLVESGGGLVQPDRSLRLSCAASGFNFDNYAIHWVRQAPGKGLEWVSGISWNSGNIGYADSVKGRFTISRDNAKNSLFLLMNSLRPDDSALYYCTRGYNWNALSPMDVWGQGTTVTVSS VL: DIQMTQSPSSLSASVGDRVTVTCRASQGISNYLAWYQQKPGKVPKLLIYAASTLQSGVPSRFSGSGSGTDFTLTISSLQPEDVASYYCQNYNSAPMTFGQGTKVEIK    1.09
H2M1937N (antibody, V domains shown, Hybridoma chimeric antibody: human variable domains, mouse IgG2 Fc (H2M prefix)) VH: QVQLQQWDAGLLKPSETLSLTCAVYGGSFSSYYWSWIRQPPGKGLEWIGEINHRGSTNYNPSLKSRVTISVDTSKNQFSLKLRSVTAADTAVYYCARGGVAARPDWHFFDYWGQGTLVTVSS VL: DIQMTQSPSSLSASVGDRVTITCRASQVIRNDLGWFQQRPGKAPKRLIYAASSLQSEVPSRFSGSGSGTEFTLTITSLQPEDFATYYCLQHNSYPLTFGQGTRLEIK    0.116

binder H2M1824N (antibody, V domains shown, Hybridoma chimeric antibody: human variable domains, mouse IgG2 Fc (H2M prefix)) VH: EVQLVESGGGVVRPGGSLRLSCAASGFTFDDYGMSWVRQAPGKGLECVSGINWNGGSTDYADSVKGRFTISRDNAKNSLYLQMNSLRAEDTASYYCARDGGDWDYFDLWGRGTLVTVSS VL: EIVMTQSPATLSVSPGERATLSCRASQSVSSNLAWYQQKPGQAPRLLIYGASTRATGIPARFSGSGSGTEFTLTISSLQSEDFAVYFCQEYNDWPLTFGGGTKVEIK , Kd observed: 0.00334

Kd in this record for H1M1940N (antibody, V domains shown, Hybridoma chimeric antibody: human variable domains, mouse constant domains (H1M prefix, mouse Fc)) VH: QVQVVESGGGVVQPGRSLRLSCAASGFTFSDYGMHWVRQAPGKGLEWVAIISYDGSNKYYADSVKGRFTVSRDNSKNTLYLQLDSLRPEDAAVFYCAREGAFNLDYYAMDVWGQGTTVTVSS VL: AIQMTQSPSSLSASVGDRVTITCRASQDIRNDLGWYQQKPGKAPNLLIYAASSLQSGVPSRFSGSGSGTDFTLTISSLQPEDFATYYCLQDSNYPLTFGGGTKVEIK : 0.0529

Lab note: measured Kd of H2M1938N (antibody, V domains shown, Hybridoma chimeric antibody: human variable domains, mouse IgG2 Fc (H2M prefix)) VH: EVQLVESGGGVVRPGGSLRLSCAASGFTFDDYGMSWVRQVPGKGLEWVSGLNWNGGITGYTDSVKGRFTISRDNAKNSLYLQMNSLRAEDTAFYHCARDSGDQDAFDIWGQGTMVTVSS VL: QIVMTQSPATLSVSPGERATLSCRASQSITPYLAWYQQKPGQTPRLLIYGVSTRATGIPARFSGSGSGTEFTLTISSLQSEDFAVYYCQQYDNWYTFGQGTKLEIK was 0.0301
